- System: Staphylococcus aureus sensitive strains (5 strains)
- Experiment: In vitro antibacterial activity, MIC by agar double dilution method
- Format: cell-based
- Assay setup: clinical isolates
Can you tell me MIC for the items I'm about to list?

*Q* Returns the measured MIC for the input compound. Input: CC(=O)NC[C@H]1CN(c2ccc(N3CCOCC3)c(F)c2)C(=O)O1 [LZ, linezolid, reference compound]
*A* 1 to 2 µg/mL

*Q* Record request: MIC value, item O=C1O[C@@H](CO)[C@@H]2COc3cc(-c4ccc(N5CCC(O)CC5)nc4)ccc3N12
*A* 2 to 4 µg/mL

*Q* What value of measured MIC is listed for O=C1O[C@H](CO)CN1c1ccc(-c2ccc3c(c2)OC[C@H]2[C@H](CO)OC(=O)N32)cn1 ?
*A* 0.5 to 1 µg/mL

*Q* Query (compound): O=C1O[C@@H](CO)CN1c1ccc(-c2ccc3c(c2)OC[C@H]2[C@H](CO)OC(=O)N32)cn1 ; field requested: MIC
*A* 0.5 to 1 µg/mL
